Where a name gives a salt, the structure may show the parent alone.
melting point for assorted compounds

// solved cases for melting point follow
COc1ccc(S(=O)(=O)C2(C(=O)NO)CCN(Cc3ccc4ccccc4c3)CC2)cc1 [Example 87] ... 168 to 170 °C
CC#CCC(CC#CC)(C(=O)NO)S(=O)(=O)c1ccc(OC)cc1 [Example 72] ... 141 to 143 °C
COc1ccc(S(=O)(=O)C(C)(CC=Cc2ccccc2)C(=O)NO)cc1 (stereo not shown) [Example 56] ... 162 to 164 °C
COc1ccc(S(=O)(=O)C2(C(=O)NO)CCN(CCOc3ccccc3)CC2)cc1 (as salt: HCl) [Example 107] ... 168 to 172 °C

Q: Supply melting point value. Item: COc1ccc(S(=O)(=O)C(C)(Cc2ccc3ccccc3c2)C(=O)NO)cc1 (stereo not shown) [Example 52]
Ans: 185 to 187 °C

Q: Supply melting point value. Item: COc1ccc(S(=O)(=O)C(Cc2ccc3ccccc3c2)C(=O)NO)cc1 (stereo not shown) [Example 40]
Ans: 161 to 163 °C

Q: Supply melting point value. Item: CCN(CC)CCOc1ccc(CC(C)(C(=O)NO)S(=O)(=O)c2ccc(OC)cc2)cc1 (stereo not shown) (as salt: HCl) [Example 21]
Ans: 56 to 59 °C

Values were extracted from patent US6342508B1.
